Provenance of the data: patent US5744462A

Test system: liver catalase
Assay: Liver catalase activity after three weeks of diet treatment
Type: in vivo, mouse (female Balb/c)
Settings: 0.25% of diet, control 31.1 ± 6.7, DHEA p < 0.05, clofibrate p < 0.001 vs control
Protocol: Female Balb/c mice were housed in polycarbonate cages (6/mice/cage) in animal quarters maintained at 24°±1° C. with 12 hours of light and 12 hours of dark each day. The mice were placed on a diet containing either DHEA, 8354, A, B clofibrate or with no addition. […] Total protein was measured by the method of Lowry, et al. (O. H. Lowry, N. J. Rosebrough, A. L. Farr, R. J. Randall, J. Biol. Chem., 193, 265 (1951)).
observed_property: CATALASE ACTIVITY (Units per mg protein)
Report as a plain number; the unit Units per mg protein is understood.

Name the recorded CATALASE ACTIVITY for CCOC(=O)C(C)(C)Oc1ccc(Cl)cc1 [Clofibrate, clofibrate, reference compound] .
92.1

Name the recorded CATALASE ACTIVITY for C[C@]12CCCC[C@@H]1CC[C@@H]1[C@@H]2CC[C@]2(C)C(=O)[C@H](O)C[C@@H]12 .
42.3

Name the recorded CATALASE ACTIVITY for C[C@]12CCCCC1=CC[C@@H]1[C@@H]2CC[C@]2(C)C(=O)[C@H](F)C[C@@H]12 .
29.2

Name the recorded CATALASE ACTIVITY for C[C@]12CC[C@H](O)CC1=CC[C@@H]1[C@@H]2CC[C@]2(C)C(=O)CC[C@@H]12 [DHEA, Dehydroepiandrosterone] .
97.8

Name the recorded CATALASE ACTIVITY for C[C@]12CCCC[C@@H]1CC[C@@H]1[C@@H]2CC[C@]2(C)C(=O)[C@H](F)C[C@@H]12 .
32.2
